// provenance: patent US20140017242A1

Listed here: items and their measured pKd.
TARGET SYSTEM: T1, human BKB2R-derived epitope peptide (SEQ ID NO:73), PEG-biotin (human, also: PEG-biotin, site not given here)
T1 construct: also called immunogenic human BKB2R peptide fragment
T1 peptide: KEYSDEGHNVTAC
MEASUREMENT DESCRIPTION: BLI (Octet), peptide-PEG-biotin on streptavidin sensor, antibody 250 nM
pKd: −log10 of the molar value. Where no end group is shown, it is not given here.

>  <BINDER>
chimeric/humanized anti-BKB2R antibody L2/HC (antibody, human IgG2, V domains shown, not shown: human IgG2 constant region) VH: EVKLEESGGGLVQPGGSMKLSCVVSGFTFSDYWMSWVRHSPEMGLEWVAEIRLKSDNYATHYAESVKGRFTISRDDSKSRLYLQINSLRGEDTGIYYCTRDYYAMEYWGQGTSVTVSS VL: DIVMTQSPLSLPVTPGEPASISCRSSQTIVHSNGKTYLEWYLQKPGQSPQLLIYKVSNRFSGVPDRFSGSGSGTEFTLKISRVEAEDVGVYYCFQASHVPYTFGQGTKLEIKR

>  <pKd>
6.47

$$$$
>  <BINDER>
humanized anti-BKB2R antibody L1/H2 (antibody, human IgG2, kappa, V domains shown) VH: EVQLVESGGGLVQPGGSLRLSCVASGFTFSDYWMSWVRQAPGKGLEWVAEIRLKSDNYATHYAESVKGRFTISRDDAKNSLYLQMNSLRAEDTAVYYCTRDYYAMEYWGQGTLVTVSS VL: DIVMTQSPLSLPVTPGEPASISCRSSQTIVHSNGKTYLEWYLQKPGQSPQLLIYKVSNRFSGVPDRFSGSGSGTDFTLKISRVEAEDVGVYYCFQASHVPYTFGQGTKLEIKR

>  <pKd>
5.69

$$$$
